- TARGET: human recombinant CB2 receptor (Homo sapiens)
- Sequence (P34972 whole entry): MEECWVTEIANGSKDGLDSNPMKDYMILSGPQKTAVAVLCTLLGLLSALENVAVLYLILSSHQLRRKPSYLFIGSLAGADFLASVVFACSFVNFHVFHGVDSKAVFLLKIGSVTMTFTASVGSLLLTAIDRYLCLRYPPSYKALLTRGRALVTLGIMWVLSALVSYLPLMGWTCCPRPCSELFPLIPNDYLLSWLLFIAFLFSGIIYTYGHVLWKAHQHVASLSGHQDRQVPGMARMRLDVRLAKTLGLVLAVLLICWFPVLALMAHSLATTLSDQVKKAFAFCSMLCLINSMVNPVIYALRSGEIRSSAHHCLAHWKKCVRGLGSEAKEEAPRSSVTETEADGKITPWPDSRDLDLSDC
- ASSAY: CB2 binding, [3H]CP55,940 displacement, membranes from transfected COS cells
- Set-up: purchased Perkin-Elmer; host or cells: COS cells
- STATED_CONDITIONS: values in nM
Ki overview
TEST_READOUT: Ki

1) CCCCCCc1ccc(O)cc1OCCCCCCCCCCC(=O)NC1CC1 ... 30 nM
2) CCCCCc1cc(O)cc(OCCCCCCCCCCC(=O)NC2CC2)c1 ... 13 nM

----------
- TARGET: human recombinant CB1 receptor (Homo sapiens)
- ASSAY: Forskolin-induced cAMP formation in CHO cells over-expressing hCB1
- Assay type: cell-based
- Design: expressed in transfected cells; host or cells: CHO cells
TEST_READOUT: EC50 (nM)

1) CCCCCc1cc(O)cc(OCCCCCCCCCCC(=O)NC2CC2)c1 ... 1600

----------
pIC50 overview
- TARGET: Fatty Acid Amide Hydrolase (FAAH) (Rattus norvegicus)
- Sequence (P97612 whole entry): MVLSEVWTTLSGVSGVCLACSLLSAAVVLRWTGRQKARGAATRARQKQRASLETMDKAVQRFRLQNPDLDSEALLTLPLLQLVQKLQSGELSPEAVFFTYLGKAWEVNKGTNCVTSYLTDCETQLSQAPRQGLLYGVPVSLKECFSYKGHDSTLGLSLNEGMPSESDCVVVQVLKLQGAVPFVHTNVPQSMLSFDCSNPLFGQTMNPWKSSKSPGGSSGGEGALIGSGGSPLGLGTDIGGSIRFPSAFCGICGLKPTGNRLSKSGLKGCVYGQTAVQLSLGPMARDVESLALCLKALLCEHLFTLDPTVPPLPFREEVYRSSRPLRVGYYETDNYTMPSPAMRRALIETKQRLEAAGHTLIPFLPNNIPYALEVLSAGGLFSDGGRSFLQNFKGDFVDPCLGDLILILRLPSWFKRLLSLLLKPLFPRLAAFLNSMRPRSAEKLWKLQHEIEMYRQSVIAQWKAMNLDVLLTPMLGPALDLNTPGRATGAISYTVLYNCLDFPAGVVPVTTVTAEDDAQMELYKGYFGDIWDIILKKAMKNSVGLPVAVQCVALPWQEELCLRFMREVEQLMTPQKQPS
- ASSAY: biochemical
- STATED_CONDITIONS: rat brain membranes, [14C]anandamide 6 μM; read-out: FAAH IC50
pIC50: −log10 of the molar value.
TEST_READOUT: pIC50

1. CCCCCCc1ccc(O)cc1OCCCCCCCCCCC(=O)Nc1ccc(O)cc1 ... 4.74
2. CCCCCCc1ccc(OCCCCCCCCCCC(=O)Nc2ccc(O)cc2)cc1O ... 4.30

----------
Ki overview
- TARGET: human recombinant CB1 receptor (Homo sapiens, UniProt P21554)
- Sequence (P21554 whole entry): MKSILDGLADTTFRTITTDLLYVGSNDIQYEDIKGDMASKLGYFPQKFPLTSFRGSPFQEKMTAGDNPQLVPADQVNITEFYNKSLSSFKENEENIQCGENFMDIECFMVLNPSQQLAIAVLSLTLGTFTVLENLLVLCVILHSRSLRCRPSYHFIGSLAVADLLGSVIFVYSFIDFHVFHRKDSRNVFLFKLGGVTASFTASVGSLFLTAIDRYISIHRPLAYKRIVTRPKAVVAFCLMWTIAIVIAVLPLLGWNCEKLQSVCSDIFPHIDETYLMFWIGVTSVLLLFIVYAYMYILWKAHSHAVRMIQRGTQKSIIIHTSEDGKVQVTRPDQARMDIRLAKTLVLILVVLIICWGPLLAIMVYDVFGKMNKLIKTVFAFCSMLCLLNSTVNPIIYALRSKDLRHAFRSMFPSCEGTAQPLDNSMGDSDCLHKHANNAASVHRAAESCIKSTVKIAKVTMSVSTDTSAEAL
- Assay type: binding
- Parameters: purchased Perkin-Elmer; host or cells: COS cells
- STATED_CONDITIONS: recombinant human CB1, COS cell membranes
TEST_READOUT: Ki (nM)

1) CCCCCc1cc(O)cc(OCCCCCCCCCCC(=O)NCCO)c1 [Compound 24] ... 800
2) CCCCCc1cc(O)cc(OCCCCCCCCCCCCCCCC(=O)NCCO)c1 [Compound 27] ... 12500
3) O=C(CCCCCCCCCCCCCCCOc1cccc(O)c1)NC1CC1 [Compound 37] ... 4250
4) O=C(CCCCCCCCCCCCCCCOc1cccc(O)c1)Nc1ccc(O)cc1 [Compound 38] ... 5000
5) CCCCCCc1ccc(O)cc1OCCCCCCCCCCCCCCCC(=O)Nc1ccc(O)cc1 [Compound 56] ... 3000
6) CCCCCc1cc(O)cc(OCCCCCCCCCCC(=O)Nc2ccc(O)cc2)c1 [Compound 26] ... 3000
7) CCCCCCc1ccc(OCCCCCC(=O)NC2CC2)cc1O [Compound 40] ... 180

----------
- TARGET: CB1 receptors (Mus musculus)
- Construct: using mouse brain membranes containing CB1 receptors; from tissue; host or cells: mouse brain membranes
- Sequence (P47746 whole entry): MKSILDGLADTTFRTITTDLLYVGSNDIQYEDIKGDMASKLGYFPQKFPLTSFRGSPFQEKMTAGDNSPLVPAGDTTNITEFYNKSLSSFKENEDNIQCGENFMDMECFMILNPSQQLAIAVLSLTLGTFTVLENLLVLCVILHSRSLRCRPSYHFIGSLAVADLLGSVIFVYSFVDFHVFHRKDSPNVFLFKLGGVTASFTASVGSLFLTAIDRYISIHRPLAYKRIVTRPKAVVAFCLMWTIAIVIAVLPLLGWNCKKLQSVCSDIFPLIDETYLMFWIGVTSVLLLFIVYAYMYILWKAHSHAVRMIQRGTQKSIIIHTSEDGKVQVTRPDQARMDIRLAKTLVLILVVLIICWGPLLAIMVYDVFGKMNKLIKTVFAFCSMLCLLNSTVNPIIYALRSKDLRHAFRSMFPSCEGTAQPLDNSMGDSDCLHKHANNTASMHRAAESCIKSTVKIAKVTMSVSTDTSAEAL
- ASSAY: [35S]GTP-γ-S binding, mouse brain membranes
- Type: biochemical
pIC50: −log10 of the molar value.
TEST_READOUT: pIC50

1) CCCCCCc1ccc(O)cc1OCCCCCCCCCCC(=O)NC1CC1 [Compound 52] ... 7.00
